tested on: CAKI-1 renal; assay: NCI-60 one-dose screen, 48 h; settings: 10 µM unless noted
The panel holds about 83,000 compounds, 20% with a hit somewhere; the sample as a whole holds those more often. Activity calls are given as the source filed them. The calls were made as follows: active = growth percent below 10; inactive = the rest.
Classes used: 1 (yes) = active, 0 (no) = inactive

[
  {
    "MOLECULE": "C/C=C(\\C)C(C(=O)NC1CCCCC1)N(C(=O)C1CCc2cc(F)ccc2O1)c1ccc([N+](=O)[O-])cc1 (stereo unspecified)",
    "LABEL_CLASS": "0 (no)"
  },
  {
    "MOLECULE": "CCc1oc2ccccc2c1C(=O)c1cc(I)c(O)c(I)c1",
    "LABEL_CLASS": "0 (no)"
  },
  {
    "MOLECULE": "CC(=O)O[C@H]1[C@H](CC#CC#CC[C@@H]2C[C@]3(C)[C@H]4CC=C5[C@H]6[C@@H](C)[C@H](C)CC[C@]6(C(=O)NCCCCCCCCN)CC[C@@]5(C)[C@]4(C)CC[C@H]3C(C)(C)[C@H]2OC(C)=O)C[C@]2(C)[C@H]3CC=C4[C@H]5[C@@H](C)[C@H](C)CC[C@]5(C(=O)NCCCCCCCCN)CC[C@@]4(C)[C@]3(C)CC[C@H]2C1(C)C",
    "LABEL_CLASS": "0 (no)"
  },
  {
    "MOLECULE": "COc1ccccc1NC(=O)OCC12COCN1COC2",
    "LABEL_CLASS": "0 (no)"
  },
  {
    "MOLECULE": "Cc1cc(C)c2c(n1)sc1c(Nc3ccc(Cl)cc3Cl)ncnc12",
    "LABEL_CLASS": "0 (no)"
  },
  {
    "MOLECULE": "CC(=O)N1N=C(c2ccc(C)cc2)CC1c1cn(-c2ccccc2)nc1-c1cccc(Nc2ccnc3cc(Cl)ccc23)c1 (stereo unspecified)",
    "LABEL_CLASS": "0 (no)"
  },
  {
    "MOLECULE": "OC(c1cc(-c2ccc(C(F)(F)F)cc2)nc(-c2ccc(C(F)(F)F)cc2)c1)C1CCCCN1 (stereo unspecified)",
    "LABEL_CLASS": "1 (yes)"
  },
  {
    "MOLECULE": "COC1CC(N)C2OC(c3ccccc3)OCC2O1 (stereo unspecified)",
    "LABEL_CLASS": "0 (no)"
  },
  {
    "MOLECULE": "COc1cc2nccc(Oc3ccc(NC(=O)C4(C(=O)Nc5ccc(F)cc5)CC4)cc3)c2cc1OC(=O)c1ccc(N)cc1",
    "LABEL_CLASS": "0 (no)"
  },
  {
    "MOLECULE": "COc1ccc(-c2nc(-c3cc(OC)cc(OC)c3)[nH]c2-c2ccc(OC)cc2)cc1",
    "LABEL_CLASS": "0 (no)"
  },
  {
    "MOLECULE": "CCN(CC)CCNc1c(C)cc(CO)c(Cl)c1C",
    "LABEL_CLASS": "0 (no)"
  },
  {
    "MOLECULE": "COc1cc2nccc(Oc3ccc(NC(=O)C4(C(=O)Nc5ccc(F)cc5)CC4)cc3)c2cc1O",
    "LABEL_CLASS": "0 (no)"
  },
  {
    "MOLECULE": "C/C(=C\\C(=N\\N=C(N)N)c1ccc(Cl)cc1)c1ccc(Cl)cc1",
    "LABEL_CLASS": "1 (yes)"
  },
  {
    "MOLECULE": "COc1ccc(C2=Nn3c(nnc3-c3ccc(Cl)cc3N)SC2)cc1",
    "LABEL_CLASS": "0 (no)"
  },
  {
    "MOLECULE": "CCCCCCCCCCCCCC(=S)NCCCC[C@H](NC(=O)OCc1ccccc1)C(=O)Nc1ccccc1",
    "LABEL_CLASS": "0 (no)"
  },
  {
    "MOLECULE": "CC1CCN(Cc2ccc(NC(=O)c3cc4ccc5cccnc5c4[nH]3)cc2)CC1",
    "LABEL_CLASS": "1 (yes)"
  }
]
